# TARGET SYSTEM: Leukotriene B4 receptor 1 (Homo sapiens)
# Sequence (Q15722 whole entry): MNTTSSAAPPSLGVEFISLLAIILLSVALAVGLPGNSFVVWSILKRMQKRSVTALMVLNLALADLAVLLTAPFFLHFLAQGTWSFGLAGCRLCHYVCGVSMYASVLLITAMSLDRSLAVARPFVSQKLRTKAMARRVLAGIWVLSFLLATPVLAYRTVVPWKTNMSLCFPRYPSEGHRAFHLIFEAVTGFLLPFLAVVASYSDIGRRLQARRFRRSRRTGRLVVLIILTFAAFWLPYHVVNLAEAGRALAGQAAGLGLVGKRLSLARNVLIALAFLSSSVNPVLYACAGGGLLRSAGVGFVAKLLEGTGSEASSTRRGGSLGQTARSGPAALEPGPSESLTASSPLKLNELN
# PROTOCOL DETAILS: Compound was tested for inhibition against binding of radioligand [3H]LTB4 to Leukotriene B4 receptor in human neutrophil membranes
I'd appreciate it if you marked entries T when IC50 is lower than 700 nM and F when it is not.

Threshold test, IC50 < 700 nM: CN(C)C(=O)CC1(O)CCCC(/C=C/C(O)CCCCc2ccc(N=[N+]=[N-])c(I)c2)C1 (stereo in doubt)
F

Could you please tell me whether IC50 recorded for [N-]=[N+]=Nc1ccc(CCCCC(O)/C=C/C2CCCC(O)(CC(=O)O)C2)cc1 (stereo not drawn) is less than 700 nM?
F

Say whether its IC50 is strictly beneath 700 nM. Entry: O=C(O)CC1(O)CCCC(/C=C/C(O)CCCCc2ccccc2)C1 (stereo not drawn)
T

Does the reported IC50 of the following molecule sit strictly below 700 nM? [N-]=[N+]=Nc1ccc(CCCCC(O)/C=C/C2CCCC(O)(CC(=O)O)C2)cc1I (stereo not drawn)
F

IC50 strictly < 700 nM for this molecule? CN(C)C(=O)CC1(O)CCCC(/C=C/C(O)CCCCc2ccc(N=[N+]=[N-])c(I)c2)C1 (stereo in doubt; 6b)
F

IC50 strictly < 700 nM for this molecule? CN(C)C(=O)CC1(O)CCCC(/C=C/C(O)CCCCc2ccccc2)C1 (stereo not drawn)
T

# TODO verify IC50 < 700 nM strictly for this molecule: CN(C)C(=O)CC1(O)CCCC(/C=C/C(O)CCCCc2ccc(N=[N+]=[N-])cc2)C1 (stereo in doubt; 4b)
F
